Taken from ChEMBL document CHEMBL4689842.

Tested on: HEK-293T
Method description: Multiplex assay against HEK293T
Assay type: toxicity, cell-based
Protocol conditions: human, 12 h, 10 µM, compound concentration 10 uM, replicate 2
Quick reference for Population Mitochondria Different-Phenotype (%) among some compounds
The reply should be a number in %, with the unit left off.

Record excerpt, results attached:
Cl.NC[C@@H]1O[C@H](C23CC4CC(CC(C4)C2)C3)Cc2c1ccc(O)c2O | 54
Cc1c(P(=S)(c2ccccc2)c2ccccc2)n2ccccc2[n+]1C/C=C/c1ccccc1.[Br-] | 54
CC[C@@H]1C(=O)N(C)c2cnc(Nc3ccc(C(=O)NC4CCN(C)CC4)cc3OC)nc2N1C1CCCC1 | 43
Cl.Cn1c2c(c3ccc(Cl)c(Cl)c31)C(C#N)C1(CCNCC1)NC2=O (stereo not drawn) | 25
C[C@@H](Oc1cc(-n2cnc3ccc(CN4CCN(C)CC4)cc32)sc1C(N)=O)c1ccccc1C(F)(F)F | 75
N#Cc1cccc(C(=O)Nc2cc(-c3ccccc3)nn2-c2ccccc2)c1 | 73
N#CCNC(=O)c1ccc(-c2ccnc(Nc3ccc(N4CCOCC4)cc3)n2)cc1 | 21
Cc1ccc(S(=O)(=O)NC2c3ccccc3Oc3ccccc32)cc1 | 33
Cc1ccc(NC(=O)Nc2cc(C(F)(F)F)ccc2F)cc1Nc1ccc2c(c1)NC(=O)/C2=C\c1ccc[nH]1 | 5
CC(C)c1cc(Nc2nc(N3CCC[C@H](N)C3)ncc2C(N)=O)cc(C(C)C)n1 | 90

For the compound shown here, CC(/C=C1\SC(=S)N(CCCC(=O)Nc2ccc(C(=O)O)c(O)c2)C1=O)=C\c1ccccc1 , give the reported Population Mitochondria Different-Phenotype (%).
5
